Consider the following compounds and their measured 1-Dmax (percent substrate remaining at maximal degradation) readings.
target: His6-tagged ClpC1-NTD substrate, M. smegmatis ClpC1P1P2 (UniProt A0R574+P9WPC9); assay: biochemical; format: biochemical; conditions: Msm; Measurement 1-6; read-out: 1-Dmax, single measurements
Sequence (P9WPC9 1-156, looked up, natural form): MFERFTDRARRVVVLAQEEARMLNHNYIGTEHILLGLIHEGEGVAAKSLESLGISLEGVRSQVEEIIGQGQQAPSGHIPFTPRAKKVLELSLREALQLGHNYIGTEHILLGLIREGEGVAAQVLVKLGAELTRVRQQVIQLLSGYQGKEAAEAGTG
Sequence (A0R574 whole entry): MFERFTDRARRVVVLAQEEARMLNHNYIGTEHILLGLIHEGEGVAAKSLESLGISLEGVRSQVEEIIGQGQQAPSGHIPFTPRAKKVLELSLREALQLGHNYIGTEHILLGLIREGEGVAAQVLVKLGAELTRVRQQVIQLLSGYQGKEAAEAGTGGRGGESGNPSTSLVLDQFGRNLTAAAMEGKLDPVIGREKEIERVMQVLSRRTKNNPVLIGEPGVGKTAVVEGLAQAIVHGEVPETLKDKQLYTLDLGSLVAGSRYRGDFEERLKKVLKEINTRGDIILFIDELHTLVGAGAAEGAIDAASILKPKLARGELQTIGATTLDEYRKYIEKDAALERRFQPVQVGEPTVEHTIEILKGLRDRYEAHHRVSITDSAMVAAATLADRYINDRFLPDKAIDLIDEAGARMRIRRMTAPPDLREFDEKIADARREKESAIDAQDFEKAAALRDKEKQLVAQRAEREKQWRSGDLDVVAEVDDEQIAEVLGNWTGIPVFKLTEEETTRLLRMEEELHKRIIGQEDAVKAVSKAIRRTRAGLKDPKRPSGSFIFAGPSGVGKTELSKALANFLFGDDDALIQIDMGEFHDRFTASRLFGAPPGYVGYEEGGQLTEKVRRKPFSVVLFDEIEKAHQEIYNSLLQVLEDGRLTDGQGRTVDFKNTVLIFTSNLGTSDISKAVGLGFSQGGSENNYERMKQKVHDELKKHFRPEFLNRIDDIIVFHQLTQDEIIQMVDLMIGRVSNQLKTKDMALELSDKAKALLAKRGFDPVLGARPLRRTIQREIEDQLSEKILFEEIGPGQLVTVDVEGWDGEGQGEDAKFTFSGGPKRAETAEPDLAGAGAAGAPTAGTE
Just the number in %, nothing appended.

Guide cases for 1-Dmax (percent substrate remaining at maximal degradation), answers given:
{"chemicalSmiles": "CO[C@H](c1ccccc1)[C@@H]1NC(=O)[C@H](C)NC(=O)[C@H](C[C@@H](C)CO)N(C)C(=O)[C@H](Cc2cn(C)c3ccccc23)NC(=O)[C@H](Cc2cn(CCOCCOCCn3cc(C[C@@H]4NC(=O)[C@H](CC(C)C)N(C)C(=O)[C@H](C(C)C)NC(=O)[C@H]([C@H](OC)c5ccccc5)NC(=O)[C@H](C)NC(=O)[C@H](C[C@@H](C)CO)N(C)C(=O)[C@H](Cc5cn(C)c6ccccc56)NC4=O)nn3)nn2)NC(=O)[C@H](CC(C)C)N(C)C(=O)[C@H](C(C)C)NC1=O", "experimentalResult": 85.6}
{"chemicalSmiles": "CO[C@H](c1ccccc1)[C@@H]1NC(=O)[C@H](C)NC(=O)[C@H](C[C@@H](C)CO)N(C)C(=O)[C@H](Cc2cn(C)c3ccccc23)N(C)C(=O)[C@H](Cc2cn(CCOCCOCCn3cc(C[C@@H]4NC(=O)[C@H](CC(C)C)N(C)C(=O)[C@H](C(C)C)NC(=O)[C@H]([C@H](OC)c5ccccc5)NC(=O)[C@H](C)NC(=O)[C@H](C[C@@H](C)CO)N(C)C(=O)[C@H](Cc5cn(C)c6ccccc56)N(C)C4=O)nn3)nn2)NC(=O)[C@H](CC(C)C)N(C)C(=O)[C@H](C(C)C)NC1=O", "experimentalResult": 95.3}

Readout 1-Dmax (percent substrate remaining at maximal degradation) for CO[C@H](c1ccccc1)[C@@H]1NC(=O)[C@H](C)NC(=O)[C@H](C[C@@H](C)CO)N(C)C(=O)[C@H](Cc2cn(Cc3cn(CCOCCn4cc(Cn5cc(C[C@@H]6NC(=O)[C@H](C(C)C)NC(=O)[C@H](CC(C)C)N(C)C(=O)[C@H](C(C)C)NC(=O)[C@H]([C@H](OC)c7ccccc7)NC(=O)[C@H](C)NC(=O)[C@H](C[C@@H](C)CO)N(C)C6=O)c6ccccc65)nn4)nn3)c3ccccc23)NC(=O)[C@H](C(C)C)NC(=O)[C@H](CC(C)C)N(C)C(=O)[C@H](C(C)C)NC1=O , test system His6-tagged ClpC1-NTD substrate, M. smegmatis ClpC1P1P2 (UniProt A0R574+P9WPC9), was 83.7
